Data origin, for the record: PubChem BioAssay (NCI)

Tested on: CCRF-CEM leukemia
Experiment: NCI tumour cell line growth inhibition, 48 h
parameter-measured: TGI (µM)
Give the value, in units of µM, as a plain number.

Use the examples below as a reference point.
* O=C(NCCCCCCCCCCCCNC(=O)Nc1cccc2ccccc12)Nc1cccc2ccccc12 | 33.4
* C=C(C(N)=O)c1ccc([N+](=O)[O-])o1 | 18.9
* O=C1Nc2ccc(Br)cc2C1=Nc1cccnc1 | 57.4

Give the value of TGI reported for the following: COc1cc2nc(N3CCCC3)nc(NCc3ccccc3)c2cc1OC
8.07

Give the value of TGI reported for the following: C=C1CC2OC(=O)C(=C)C2C(O)C2C(=C)CCC12 (configuration not stated)
10.2

Give the value of TGI reported for the following: Cc1cc2c(C(C)C)c(O)c(O)cc2c(O)c1-c1c(C)cc2c(C(C)C)c(O)c(O)cc2c1O
21.5

Give the value of TGI reported for the following: O=[N+]([O-])c1ccc2sc(C=Nc3cnccn3)cc2c1
40.4

Give the value of TGI reported for the following: O=C1C(Nc2ccc(Cl)cc2)=C(I)C(=O)c2ncccc21
5.88

Give the value of TGI reported for the following: Cc1ccccc1C1OC(=O)c2ccc3ccccc3c21 (configuration not stated)
17.6

Give the value of TGI reported for the following: Cc1cc(F)ccc1S(=O)(=O)Nc1cc(-c2c(O)ccc3ccccc23)c(O)c2ccccc12
16.6
